test system: six V600E BRAF melanoma cell lines; experiment: Screening of recombinant RTK ligands for ability to confer resistance to BRAFi (PLX4720) or MEKi (PD184352) (Table 4); format: cell-based, human; design: scale not given here; conditions: SK-MEL-5, PLX4720 - 2 uM, ligand 25 ng/ml
Kind request: treat 1 as inclusive, so ability of recombinant RTK ligand to confer resistance at 1 or higher is yes (1), anything lower is no (0).

INSERT INTO measurements (molecule, cat) VALUES
  ('flt-3 ligand (FL) (protein, UniProt P49771 27-235, looked up) Fms-related tyrosine kinase 3 …: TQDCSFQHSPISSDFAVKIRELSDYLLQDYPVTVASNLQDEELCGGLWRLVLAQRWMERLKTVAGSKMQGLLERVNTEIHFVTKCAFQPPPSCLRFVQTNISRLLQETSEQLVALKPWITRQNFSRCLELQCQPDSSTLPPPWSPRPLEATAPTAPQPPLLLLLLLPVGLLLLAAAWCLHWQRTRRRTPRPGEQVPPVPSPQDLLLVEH', 'no (0)'),
  ('VEGF-C (protein, UniProt P49767 112-227, looked up) Vascular endothelial growth …: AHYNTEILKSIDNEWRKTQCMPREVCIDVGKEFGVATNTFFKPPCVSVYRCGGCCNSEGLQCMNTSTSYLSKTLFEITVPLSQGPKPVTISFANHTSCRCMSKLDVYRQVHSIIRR', 'no (0)'),
  ('BDNF (protein, UniProt P23560 19-247, looked up) Neurotrophic factor BDNF …: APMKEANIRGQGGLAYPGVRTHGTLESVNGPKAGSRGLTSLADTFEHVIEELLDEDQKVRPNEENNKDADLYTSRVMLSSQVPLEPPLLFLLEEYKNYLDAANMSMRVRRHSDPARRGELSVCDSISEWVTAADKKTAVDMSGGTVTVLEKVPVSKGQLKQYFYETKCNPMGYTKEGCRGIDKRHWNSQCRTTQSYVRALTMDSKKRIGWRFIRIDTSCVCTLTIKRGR', 'yes (1)');

Reference source for all entries: patent US20140348819A1
